System: HT-29
Assay: Antiproliferative activity against human HT-29 cells measured after 72 hrs by MTT assay
Details: HT-29, 72 h
pIC50: −log10 of the molar value.
result type: pIC50

>>> reported_value("COc1cc2c(Oc3ccc(NC(=O)Cc4nnc(-c5ccc(F)cc5)o4)cc3F)ccnc2cc1OCCCN1CCCC1")
5.63
>>> reported_value("COc1cc2c(Oc3ccc(NC(=O)Cc4nnc(-c5ccc(Br)cc5)o4)cc3F)ccnc2cc1OCCCN1CCC(C)CC1")
6.23
>>> reported_value("COc1cc2c(Oc3ccc(NC(=O)C(C)(C)c4nnc(-c5ccc(F)cc5)o4)cc3F)ccnc2cc1OCCCN1CCC(C)CC1")
6.19
>>> reported_value("COc1cc2c(Oc3ccc(NC(=O)C(C)c4nnc(-c5ccc(F)cc5)o4)cc3F)ccnc2cc1OCCCN1CCOCC1 (stereo unspecified)")
5.60
>>> reported_value("COc1cc2c(Oc3ccc(NC(=O)C(C)c4nnc(-c5ccc(F)cc5)o4)cc3F)ccnc2cc1OCCCN1CCCC1 (stereo unspecified)")
5.90

[a] COc1cc2c(Oc3ccc(NC(=O)C(C)c4nnc(-c5ccc(F)cc5)o4)cc3F)ccnc2cc1OCCCN1CCC(C)CC1 (stereo unspecified)
[b] COc1cc2c(Oc3ccc(NC(=O)Cc4nnc(-c5ccc(F)cc5)o4)cc3F)ccnc2cc1OCCCN1CCCCC1
Prompt: Hello, I am sorting some records. Could you say if a or b has the smaller pIC50 value? Write down the label attached to your selection.
Response: a
